Data credit: patent US6951843B2

# System: Arg-gingipain (RGP)
# assay_procedure: Inhibitory activity against Arg-gingipain (RGP), substrate Z-Phe-Arg-MCA, for comparison
# Format: biochemical, Porphyromonas gingivalis
# run_conditions: compound concentration 10^−6 mol/l
Record form. Attribute: Enzyme inhibitory activity (%) RGP. Fill in for each entry.
API: value field is a number in %; no unit string.

Report Enzyme inhibitory activity (%) RGP for CNC(=O)CC[C@H](NC(=O)OCc1ccccc1)C(=O)N[C@@H](CCCCN)C(=O)C(=O)NCc1ccccc1.Cl [Example 44] please. 1.9

Report Enzyme inhibitory activity (%) RGP for Cl.Cl.NCCCC[C@H](NC(=O)[C@H](CCC(=O)N1CCNCC1)NC(=O)OCc1ccccc1)C(=O)C(=O)NCc1ccccc1 [Example 47] please. 6.4

Report Enzyme inhibitory activity (%) RGP for CC(C)C[C@H](NC(=O)C(=O)[C@H](CCCCN)NC(=O)[C@H](CCC(=O)O)NC(=O)OCc1ccccc1)C(=O)N(C)C.Cl [Example 35] please. 3.7
